Every entry's value here was drawn from PubChem BioAssay AID1347076.

Assay: qHTS assay for MDR1-selective chemotherapeutics: Primary screen using the drug-selected MDR subline cells KB-V1; further: nearly all actives have a fitted effect of over 60% in size
Details: KB-V1 MDR cells viability, CellTiter-Glo, 72 h; series mostly up to 46.1 µM
Screen size: about 400,000 compounds; about 13,000 (3.2%) were called active. About 18% were inconclusive and are not listed. The call rests on the fitted dose curve; in most records, active means well fitted cell-killing curve with a large enough effect; inconclusive means small, poorly fitted or top-dose-only effect, or effect the other way; inactive means flat fitted curve, though single readings scatter. Many of the other results were omitted from the sample, so actives are more common in it than they were.
Classes to choose from: true for active, false for inactive

N#CC1=C(SCc2ccccc2)NC(=O)C(C#N)C12CCCC2 (stereo unspecified)
true
CN1CCN(C(CNC(=O)c2ccccc2F)c2ccc3c(c2)OCO3)CC1 (stereo unspecified)
false
COC(=O)c1cc(C(=O)OC)cc(N2C(=O)CC(N3CCN(c4ccccc4)CC3)C2=O)c1 (stereo unspecified)
false
COc1cc(CCN=Cc2ccccc2O)c([N+](=O)[O-])cc1OC
false
COc1cc2c(cc1OC)C(Cc1cc(OC)c(OC)cc1[N+](=O)[O-])=NCC2
true

IN: Called result for "CCOC(=O)N1C(=O)C[C@](Sc2ccc(C)cc2)(C(=O)OC)[C@H]1c1ccccc1"
OUT: false

IN: Called result for "Cc1cccc(N=C2NC(=O)/C(=C/c3cn(C)c4ccccc34)S2)c1"
OUT: true

IN: Called result for "COc1cc(CNCc2ccc3c(c2)OCO3)c([N+](=O)[O-])cc1OC"
OUT: false

IN: Called result for "COC(=O)c1c(C)oc2ccc(N(C(=O)Oc3ccccc3)S(=O)(=O)c3ccccc3)cc12"
OUT: true

IN: Called result for CCCC(=O)N1CCC1(C)C(=O)NCc1ccc(C(C)C)cc1 (stereo unspecified)
OUT: false

IN: Called result for "Cc1ccc(Cc2c(-c3ccc(C)cc3)nc3c4ccccc4ccn23)cc1"
OUT: false

IN: Called result for "O=S(=O)(c1ccc(SCc2ccccc2)nc1)N1CCCCCC1"
OUT: false

IN: Called result for CCC(C(=O)Nc1cccc(Cl)c1C)n1nc(-c2ccc(C)cc2)ccc1=O (stereo unspecified)
OUT: false

IN: Called result for "Cc1ccc(N2C(=O)S/C(=C/c3cn(C)c4ccccc34)C2=O)cc1"
OUT: false

IN: Called result for "C[C@H]1Cn2cnc(C(=O)N[C@@H](Cc3c[nH]c4ccccc34)C(=O)OC(C)(C)C)c2C(=O)N1"
OUT: false
